test system: M. tuberculosis H37Rv growth inhibition; assay: M. tuberculosis H37Rv growth inhibitors, H37Rv strain (AID 1626); conditions: measured here: Vero cell cytotoxicity
PROPERTY: CC50

Some solved entries appear below for comparison.
MOLECULE | CC50
Cc1cc(Cl)n2ncc(-c3ccccc3)c2n1 | > 40 µM
CC(C)(C)c1cc(NCc2ccccn2)n2ncc(-c3ccc(Cl)cc3)c2n1 | > 40 µM

Kindly consider the entry below.
Recall and state the measured CC50 for `Cc1ccc(-n2cc(CN(C)Cc3nccn3C)c(-c3cccc(C)c3)n2)cc1` .
> 40 µM

###

tested on: M. tuberculosis H37Rv growth inhibition; experiment: M. tuberculosis H37Rv growth inhibitors, H37Rv strain (AID 1626); conditions: measured here: Vero cell cytotoxicity
The entries below are paired with their reported CC50.

Some solved entries appear below for comparison.
MOLECULE | CC50
Cc1nc(S/C(=C/c2ccc(-c3ccc(Cl)cc3)o2)C(=O)O)n[nH]1 | > 40 µM
Cc1nc(N/C(N)=N/S(=O)(=O)c2ccc([N+](=O)[O-])cc2)nc2ccccc12 | > 40 µM
O=[N+]([O-])c1cc(O)c2ncccc2c1 | 7.36 µM

Answer with CC50 of COc1ccc(CNCCC(c2ccc(F)cc2)c2ccc(OC(C)C)cc2)cc1OC (centres undefined) measured for M. tuberculosis H37Rv growth inhibition.
15.4 µM

Answer with CC50 of `C/C(=C\C(=S)Nc1ccccc1)Nc1ccc2ccccc2c1` measured for M. tuberculosis H37Rv growth inhibition.
> 40 µM

###

system: M. tuberculosis H37Rv growth inhibition; assay: M. tuberculosis H37Rv growth inhibitors, H37Rv strain (AID 1626)
PROPERTY: IC50

Some solved entries appear below for comparison.
COMPOUND | PROPERTY | MEASUREMENT
Cc1[nH][nH]c(=O)c1C(c1ccc(-c2ccc(Cl)cc2)o1)c1c(C)[nH][nH]c1=O | IC50 | 3.69 µM
CC1CC1C(=O)Nc1ccc(-c2ccccc2)cc1 (configuration not stated) | IC50 | 0.31 µM
CCOc1ccc(N=c2scc(-c3ccccc3)n2CCO)cc1 | IC50 | 35.1 µM
O=C(/C=C/c1cccc2ccccc12)c1ccncc1 | IC50 | 8.2 µM
CCCCCOC(=O)NCCOC(=O)Nc1ccc(C(=O)OCC)cc1 | IC50 | < 0.195 µM
Cc1[nH]n2c(=O)c3c(nc2c1-c1ccccc1)CCCC3 | IC50 | 2.89 µM

Kindly consider the entry below.
Recall and state the measured IC50 for C=C(C)C1Cc2c(C)nn(-c3nc(C)cc(C)n3)c2C1 (configuration not stated) .
10.1 µM

###

tested on: M. tuberculosis H37Rv growth inhibition; experiment: M. tuberculosis H37Rv growth inhibitors, H37Rv strain (AID 1626)
PROPERTY: IC50

COMPOUND | EXPERIMENTAL_SYSTEM | IC50
CC(C)Oc1ccc(C(=O)Nc2ccc(Cl)c(S(=O)(=O)Nc3ccc(Cl)cc3)c2)cc1 | M. tuberculosis H37Rv growth inhibition | 11.6 µM
Cc1ccc(-c2nc3c(cnn3-c3ccccc3)c(=O)o2)cc1 | M. tuberculosis H37Rv growth inhibition | 6.21 µM
COC(=O)CSc1nc(-c2ccccc2)c2c(c1C#N)CCCC2 | M. tuberculosis H37Rv growth inhibition | 5.24 µM
Cc1ccn2c(Nc3ccccc3)c(-c3ccccn3)nc2c1 | M. tuberculosis H37Rv growth inhibition | 2.88 µM
Cc1cc(NCc2ccccn2)n2ncc(-c3ccccc3)c2n1 | M. tuberculosis H37Rv growth inhibition | 4.82 µM
O=C(Cn1nc(CNc2ccc(Cl)cc2)[n+]2c1CCCCC2)c1ccc(Br)cc1 | M. tuberculosis H37Rv growth inhibition | 4.63 µM

Recall and state the measured IC50 for `CCC(CC)c1nnc(NC(=O)c2ccc3ccccc3n2)s1` .
0.814 µM

Recall and state the measured IC50 for `CCOc1ccc2nc(SCC(=O)Nc3ccc4c(c3)OCO4)sc2c1` .
25 µM

Recall and state the measured IC50 for `COC(=O)CSc1ccc(-c2nc3ccc(C)cc3[nH]2)cn1` .
1.95 µM

Recall and state the measured IC50 for `CN1CCN(c2ccccc2NC(=O)c2cc3c(s2)-c2ccccc2OC3)CC1` .
8.62 µM

Recall and state the measured IC50 for `COc1ccc(N=C2NN=C(c3c(C)[nH]c4ccccc34)CS2)cc1` .
39 µM

Recall and state the measured IC50 for `O=C1/C(=C/c2cccnc2)Oc2cc(OS(=O)(=O)c3ccc(F)cc3)ccc21` .
72.6 µM

Recall and state the measured IC50 for `Cc1ccc(C(=O)NCCSC(C)(C)C)cc1[N+](=O)[O-]` .
2.96 µM

Recall and state the measured IC50 for `Cc1cc(C)cc(OCc2nnc(SCC(=O)OC3CCCCC3)o2)c1` .
1.83 µM

###

The entries below are paired with their reported IC90.
tested on: M. tuberculosis H37Rv growth inhibition; assay: M. tuberculosis H37Rv growth inhibitors, H37Rv strain (AID 1626); details: measured here: IC90 against H37Rv
Give just the numeric value; µM need not be written.

COMPOUND | UNITS_TEXT | IC90
CCN1CCN(c2cc(C(C)(C)C)nc3c(-c4ccccc4)c(C)nn23)CC1 | µM | 5.63
O=C1c2cccc3c([N+](=O)[O-])ccc(c23)C(=O)N1CC1CCCO1 (stereo not given) | µM | 12.5
COc1ccc(-c2c(C#N)c(SCC(=O)c3cc4ccccc4oc3=O)nc(C)c2C(=O)Nc2ccccc2)cc1 | µM | 14.2
O=C(Nc1nc(-c2ccccn2)cs1)c1ccc(Br)s1 | µM | 0.585
O=[N+]([O-])c1cccnc1N1CCC(c2cc(-c3cccc(C(F)(F)F)c3)n[nH]2)CC1 | µM | 11

Recall and state the measured IC90 for `O=C1C=C(c2cccs2)C[C@H](c2ccccc2)[C@H]1n1nnc([N+](=O)[O-])n1` .
7.5

Recall and state the measured IC90 for `Cc1ccc(N/C(N)=N/c2nc(C)cc(N3CCCCC3)n2)c(C)c1` .
3.68

###

system: M. tuberculosis H37Rv growth inhibition; assay: M. tuberculosis H37Rv growth inhibitors, H37Rv strain (AID 1626)
The entries below are paired with their reported IC50.

Some solved entries appear below for comparison.
GIVEN_SMILES | IC50
COc1ccc2nc(N=Nc3ccc(O)c4ccccc34)sc2c1 | 5.17 µM
COc1ccc(C[C@H]2CN3C(=NC[C@@H]3Cc3ccc(O)cc3)N2CCNC(=O)c2ccc(C)c(Br)c2)cc1 | 4.4 µM
Cc1cc(-c2c(C)[nH]n(-c3ccccc3)c2=O)n[nH]1 | 10.5 µM
CCOC(=O)COc1cc(OCC(=O)OCC)c2c(=O)cc(-c3ccccc3)oc2c1 | 1.37 µM
CCCOC(=O)c1ccc(NC(=O)Oc2ccccc2)cc1 | 4.53 µM

Answer with IC50 of `O=C(CSc1nc2cc(Cl)ccc2o1)NCCc1ccccc1` measured for M. tuberculosis H37Rv growth inhibition.
< 0.391 µM

Answer with IC50 of `CCOC(=O)CSc1nnc(-c2ccccc2NC(=O)c2ccccc2)o1` measured for M. tuberculosis H37Rv growth inhibition.
2.75 µM

###

system: M. tuberculosis H37Rv growth inhibition; assay: M. tuberculosis H37Rv growth inhibitors, H37Rv strain (AID 1626)
The entries below are paired with their reported IC50.

Some solved entries appear below for comparison.
COMPOUND | IC50
CCOc1ccc(NC2=C(OC)C(=O)c3ccccc3C2=O)cc1 | 28.3 µM
COc1ccc(C(C(=O)NC2CCCCC2)N(C(=O)c2sc(C)nc2C)c2ccc(C(C)=O)cc2)cc1 (stereo not drawn) | 65.5 µM
CCn1c(NC(=O)c2cccc(Cn3cc(Cl)cn3)c2)nc2ccccc21 | 3.65 µM
O=C(Nc1nnc(C2=COCCO2)o1)c1ccc(Cl)cc1 | 2.71 µM
Nc1ccc2oc(-c3cc(Br)ccc3Cl)nc2c1 | 18.6 µM
CCOC(=O)c1cnc2ccc(OCC)cc2c1NCc1ccccc1 | 15.7 µM
CCOC(=O)N1CCN(CCC(=O)Nc2ccc(C)c(Br)c2)CC1 | 6.69 µM

Kindly consider the entry below.
Recall and state the measured IC50 for `CC(C)(C)c1cc(NCc2ccccn2)n2ncc(-c3ccc(Cl)cc3)c2n1` .
0.655 µM

###

The entries below are paired with their reported IC50.
system: M. tuberculosis H37Rv growth inhibition; test: M. tuberculosis H37Rv growth inhibitors, H37Rv strain (AID 1626)

Some solved entries appear below for comparison.
COMPOUND | MEASUREMENT
O=C(/C=C/c1ccc(Cl)c([N+](=O)[O-])c1)c1cccnc1 | 1.18 µM
FC(F)(F)c1nnc(-c2ccccc2)nc1Sc1ccccc1 | 21.9 µM

Recall and state the measured IC50 for `CCCc1cc(NCCCn2ccnc2)n2nc(C)c(-c3ccccc3)c2n1` .
6.28 µM

Recall and state the measured IC50 for CCCCOc1ccc(NC(=O)C2CC=CCC2C(=O)O)cc1 (stereo not given) .
75.7 µM

Recall and state the measured IC50 for `c1ccc(Oc2nc(-c3ccccn3)nc3ccccc23)cc1` .
2.71 µM

Recall and state the measured IC50 for `COc1cccc(-c2cc(C(=O)Nc3nc4ccccc4s3)c3ccccc3n2)c1` .
8.12 µM

Recall and state the measured IC50 for `CC(=O)c1ccc(NC(=O)c2cc(CC(C)C)on2)cc1` .
7.21 µM

Recall and state the measured IC50 for `O=C1Nc2ccccc2C1=Nc1ccc(S(=O)(=O)Nc2nccs2)cc1` .
4.54 µM

Recall and state the measured IC50 for `Cc1nc(N/C(N)=N/S(=O)(=O)c2ccc([N+](=O)[O-])cc2)nc2ccccc12` .
9.12 µM

Recall and state the measured IC50 for `CC(C)[C@H](NC(=O)c1ccccc1Cl)C(=O)Nc1nc(-c2ccccn2)cs1` .
7.72 µM
